Give measured half-life for each item. Keep answers brief.
- testSummary: Half life in CD1 mouse at 45 mg/m'2 of body surface, po administered as single dose
- Format: ADME, organism-based
- condition: in vivo
One number for each entry, in h.

Sample answers from the record:
### Prompt I am curious: what half-life value has been reported for `C=C1CC[C@H]2[C@@H]3CCc4cc(C(N)=O)c(OC)cc4[C@H]3CC[C@]12C` ?
### Response 4.8

### Prompt # input compound: `COc1cc2c(cc1O)CC[C@@H]1[C@@H]2CC[C@]2(C)[C@@H](O)CC[C@@H]12` ; wanted: its half-life
### Response 0.3

### Prompt Looking for the measured half-life of `COc1cc2c(cc1C(N)=O)CC[C@@H]1[C@@H]2CC[C@]2(C)CCC[C@@H]12` , can you help?
### Response 1.1

Note: attention shifts to another entry.
### Prompt So what's the measured half-life for this one? `COc1cc2c(cc1C(N)=O)CC[C@@H]1[C@@H]2CC[C@]2(C)C=CC[C@@H]12`
### Response 2.1
